Biological target: hAT1R (Homo sapiens, UniProt P30556)
Sequence (P30556 1-359): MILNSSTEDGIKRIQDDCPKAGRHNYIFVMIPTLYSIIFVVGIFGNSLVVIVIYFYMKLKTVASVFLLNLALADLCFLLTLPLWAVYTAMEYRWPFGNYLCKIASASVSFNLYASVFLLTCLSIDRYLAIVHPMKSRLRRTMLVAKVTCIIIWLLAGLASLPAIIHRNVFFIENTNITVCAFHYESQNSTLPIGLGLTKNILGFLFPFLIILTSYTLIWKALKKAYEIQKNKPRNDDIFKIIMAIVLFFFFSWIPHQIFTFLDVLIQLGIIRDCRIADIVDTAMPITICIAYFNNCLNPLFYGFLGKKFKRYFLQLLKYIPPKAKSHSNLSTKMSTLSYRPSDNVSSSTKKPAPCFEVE
Assay: cell-based
Details: agonist mode
Let's look at some molecules and their measured BRET P63 Ymax.
Write down the numeric answer in % and omit the unit.

molecule	target-or-test-system	BRET P63 Ymax [%]
CCc1nc2c(C)cc(C)nc2n1Cc1ccc(-c2cc(-n3cnc(C)c3)ccc2-c2nnn[nH]2)cc1	hAT1R (Homo sapiens, UniProt P30556)	5.4
CCCCC(=O)N(Cc1ccc(-c2cc(-c3cc(C)ccn3)ccc2-c2nn[nH]n2)cc1)[C@H](C(=O)O)C(C)C	hAT1R (Homo sapiens, UniProt P30556)	24.0
CCOc1nc2cccc(C(=O)O)c2n1Cc1ccc(-c2cc(-c3cccc(C)n3)ccc2-c2noc(=O)[nH]2)cc1	hAT1R (Homo sapiens, UniProt P30556)	17.3

Result for CCc1nc2c(C)cc(C)nc2n1Cc1ccc(-c2cc(-c3cc(C)cc(C)n3)ccc2C(=O)O)cc1 , tested on hAT1R (Homo sapiens, UniProt P30556), BRET P63 Ymax: 16.2

----------
Molecular target: AGTR1 (Homo sapiens, UniProt P30556)
Construct: host or cells: Pathunter CHO-K1 AGTR1 β-arrestin cell line (CHO-K1)
Sequence (P30556 1-359): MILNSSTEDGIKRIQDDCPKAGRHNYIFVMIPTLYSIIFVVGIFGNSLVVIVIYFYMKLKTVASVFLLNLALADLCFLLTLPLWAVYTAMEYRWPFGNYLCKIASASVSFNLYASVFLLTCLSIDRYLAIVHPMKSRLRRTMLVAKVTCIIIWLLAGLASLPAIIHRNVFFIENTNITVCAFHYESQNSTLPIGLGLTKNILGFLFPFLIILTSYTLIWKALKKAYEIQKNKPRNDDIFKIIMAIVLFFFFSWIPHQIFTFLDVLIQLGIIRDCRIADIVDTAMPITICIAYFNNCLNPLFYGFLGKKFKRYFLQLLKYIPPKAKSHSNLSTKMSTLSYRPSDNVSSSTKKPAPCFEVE
Experiment: DiscoveRx β-arrestin2 recruitment assay (enzyme complementation, Pathunter CHO-K1 AGTR1 β-arrestin cell line)
Type: cell-based
Conditions: DiscoveRx β-arrestin2 recruitment, maximal response
quantity-measured: DiscoveRx β-arrestin2 Ymax (%)
The answer consists of two parts: a number and, after it, its unit.

Field: example entries. Status: answers known.
compound	target-or-test-system	DiscoveRx β-arrestin2 Ymax (%)
CCCCC1=NC2(CCOC2)C(=O)N1Cc1ccc(-c2cc(-c3ccccc3F)ccc2-c2nnn[nH]2)cc1 (single isomer, unassigned) [Example 149]	AGTR1 (Homo sapiens, UniProt P30556)	55.2%
CCOc1nc2cccc(C(=O)O)c2n1Cc1ccc(-c2cc(-c3cccnc3OC)ccc2C(=O)O)cc1	AGTR1 (Homo sapiens, UniProt P30556)	54.6%
CCCCC1=NC2(CCCC2)C(=O)N1Cc1ccc(-c2cc(-c3cccc(F)c3F)ccc2-c2nn[nH]n2)cc1	AGTR1 (Homo sapiens, UniProt P30556)	38.6%

From here, focus on the item given below.
In plain terms, CCCCC1=NC2(CCCC2)C(=O)N1Cc1ccc(-c2cc(N3CCC[C@H](C)C3)ccc2-c2nn[nH]n2)cc1 has a documented DiscoveRx β-arrestin2 Ymax (%) of 9.1%

----------
biological target: hAT1R (Homo sapiens); test: BRET β-arrestin2 biosensor assay, higher receptor expression (hAT1R 5 ng/well), HEK293 cells; type: cell-based; conditions: High AT1R Expression
quantity-measured: pEC50
Expect pEC50 as a plain number equal to -log10 of the molar concentration.

Field: example entries. Status: answers known.
molecule	measurement
CCc1nc2c(C)cc(C)nc2n1Cc1ccc(-c2cc(Oc3cc(C)ccn3)ccc2-c2nn[nH]n2)cc1	8.42
CCCCc1ncc(C(=O)Nc2nc(C)cs2)n1Cc1ccc(-c2cc(-c3ccccc3)ccc2-c2nn[nH]n2)cc1	6.93
CCCCC(=O)N(Cc1ccc(-c2cc(N3CCC(C)CC3)ccc2-c2nn[nH]n2)cc1)[C@H](C(=O)O)C(C)C	6.47

From here, focus on the item given below.
Result for CCc1nc2c(C)cc(C)nc2n1Cc1cnc(-c2cc(-c3cccc(C)c3)ccc2C(=O)O)cn1 , tested on hAT1R (Homo sapiens), pEC50: 6.65

----------
molecular target: hAT1R (Homo sapiens, UniProt P30556); assay: cell-based; conditions: Low AT1R Expression
Let's look at some molecules and their measured BRET β-Arrestin2 Low AT1R Expression Ymax (%).
Write down the numeric answer in % and omit the unit.

Field: example entries. Status: answers known.
molecule	result-unit	measurement
Cc1ccnc(-c2ccc(-c3nn[nH]n3)c(-c3ccc(CN4C(=O)C5(CCCC5)N=C4C(C)C)cc3)c2)c1	%	78.7
CCCCC1=NC2(CCCC2)C(=O)N1Cc1ccc(-c2cc(-c3cccc(F)c3)ccc2-c2nn[nH]n2)cc1	%	29.5
CCc1nc2c(C)cc(C)nc2n1Cc1ccc(-c2cc(-c3cc(C)cc(C)c3)ccc2-c2nn[nH]n2)cc1	%	80.3

In plain terms, Cc1ccnc(-c2ccc(-c3nn[nH]n3)c(-c3ccc(CN4C(=O)C5(CCCC5)N=C4C4CC4)cc3)c2)c1 has a documented BRET β-Arrestin2 Low AT1R Expression Ymax (%) of 50.1

In plain terms, CCc1nc2c(C)cc(C)nc2n1Cc1ccc(-c2cc(-c3cc(C)ccn3)ccc2-c2nn[nH]n2)cc1 has a documented BRET β-Arrestin2 Low AT1R Expression Ymax (%) of 98.7

In plain terms, CCc1nc2c(C)cc(C)nc2n1Cc1ccc(-c2cc(-c3cccc(C(F)(F)F)n3)ccc2-c2nn[nH]n2)cc1 has a documented BRET β-Arrestin2 Low AT1R Expression Ymax (%) of 38.2

In plain terms, CCc1nc2c(C)cc(C)nc2n1Cc1ccc(-c2cc(-c3cc(F)cc(F)c3)ccc2-c2nn[nH]n2)cc1 has a documented BRET β-Arrestin2 Low AT1R Expression Ymax (%) of 61.8

In plain terms, CCc1nc2c(C)cc(C)nc2n1Cc1ccc(-c2cc(-c3ccccc3C)ccc2-c2nn[nH]n2)cc1 has a documented BRET β-Arrestin2 Low AT1R Expression Ymax (%) of 15.2

In plain terms, CCCCC1=NC2(CCCC2)C(=O)N1Cc1ccc(-c2cc(-c3ccccc3)ccc2-c2nn[nH]n2)cc1 has a documented BRET β-Arrestin2 Low AT1R Expression Ymax (%) of 27.5

In plain terms, CCC1=NC2(CCCC2)C(=O)N1Cc1ccc(-c2cc(-c3cc(C)ccn3)ccc2-c2nn[nH]n2)cc1 has a documented BRET β-Arrestin2 Low AT1R Expression Ymax (%) of 88.6

In plain terms, CCc1nc2c(C)cc(C)nc2n1Cc1ccc(-c2cc(C3CCCCCC3)ccc2-c2nn[nH]n2)cc1 has a documented BRET β-Arrestin2 Low AT1R Expression Ymax (%) of 16.3

In plain terms, CCc1nc2c(C)cc(C)nc2n1Cc1ccc(-c2cc(-c3cccc(C)c3)ccc2-c2nn[nH]n2)cc1 has a documented BRET β-Arrestin2 Low AT1R Expression Ymax (%) of 80.5

In plain terms, CCc1nc2c(C)cc(C)nc2n1Cc1ccc(-c2cc(-c3ccccc3)ccc2-c2noc(=S)[nH]2)cc1 has a documented BRET β-Arrestin2 Low AT1R Expression Ymax (%) of 44.4

In plain terms, CCc1nc2c(C)cc(C)nc2n1Cc1ccc(-c2cc(-c3ccccn3)ccc2-c2nn[nH]n2)cc1 has a documented BRET β-Arrestin2 Low AT1R Expression Ymax (%) of 72.9

In plain terms, CC1=NC2(CCCC2)C(=O)N1Cc1ccc(-c2cc(-c3cc(C)ccn3)ccc2-c2nn[nH]n2)cc1 has a documented BRET β-Arrestin2 Low AT1R Expression Ymax (%) of 80.7

----------
molecular target: AGTR1 (Homo sapiens); construct: host or cells: Pathunter CHO-K1 AGTR1 β-arrestin cell line (CHO-K1); test: DiscoveRx β-arrestin2 recruitment assay (enzyme complementation, Pathunter CHO-K1 AGTR1 β-arrestin cell line); assay type: cell-based; settings: DiscoveRx β-arrestin2 recruitment, maximal response
Let's look at some molecules and their measured DiscoveRx β-arrestin2 Ymax (%).

In plain terms, CCc1nc2c(C)cc(C)nc2n1Cc1ccc(-c2cc(N3CC[C@H](C)C3)ccc2-c2nn[nH]n2)cc1 [Example 89] has a documented DiscoveRx β-arrestin2 Ymax (%) of 22.5%

In plain terms, CCc1nc2c(C)cc(C)nc2n1Cc1ccc(-c2cc(N3CCCCC3)ccc2-c2nn[nH]n2)cc1 [Example 91] has a documented DiscoveRx β-arrestin2 Ymax (%) of 22.6%

In plain terms, CCOc1nc2cccc(C(=O)O)c2n1Cc1ccc(-c2cc(Oc3cccc(F)c3)ccc2-c2nn[nH]n2)cc1 [Example 331] has a documented DiscoveRx β-arrestin2 Ymax (%) of 44.5%

In plain terms, CCCCC1=NC2(CCCC2)C(=O)N1Cc1ccc(-c2cc(N3CCC[C@@H](C)C3)ccc2-c2nn[nH]n2)cc1 [Example 106] has a documented DiscoveRx β-arrestin2 Ymax (%) of 6.3%
